Assay: clinical
Conditions: human, in vivo, 25 mg, Tmax
ASSAY_READOUT: Tmax (h)
Provide the reading as a plain figure in h.

QUERY: Consider the compound shown here: COC(=O)N[C@H](C(=O)N1CCC[C@H]1c1nc2cc(-c3csc4c(-c5ccc(-c6cnc([C@@H]7CCCN7C(=O)[C@H](NC(=O)OC)c7ccccc7)[nH]6)cc5)csc34)ccc2[nH]1)C(C)C [the Compound] What is its recorded Tmax?
RESULT: 3.8

----------
Test: clinical
Details: human, in vivo, 10 mg
ASSAY_READOUT: AUC(0-inf) (ng·h/mL)
Give the quantity in ng·h/mL, number only.

QUERY: Item under review: `COC(=O)N[C@H](C(=O)N1CCC[C@H]1c1nc2cc(-c3csc4c(-c5ccc(-c6cnc([C@@H]7CCCN7C(=O)[C@H](NC(=O)OC)c7ccccc7)[nH]6)cc5)csc34)ccc2[nH]1)C(C)C` . Reported AUC(0-inf)?
RESULT: 188

----------
Assay: Phase I/IIa Group A: pharmacokinetics in healthy subjects
Format: in vivo, human
Conditions: human, plasma, oral, 50 mg, healthy subjects, 50 mg single dose, fasted, PK Day 1, mean ± SD
ASSAY_READOUT: half-life (h)
The answer is to be given in h; state only the numeric part.

QUERY: Endpoint output: half-life of COC(=O)N[C@H](C(=O)N1CCC[C@H]1c1nc2cc(-c3csc4c(-c5ccc(-c6cnc([C@@H]7CCCN7C(=O)[C@H](NC(=O)OC)c7ccccc7)[nH]6)cc5)csc34)ccc2[nH]1)C(C)C [the Compound] . Value?
RESULT: 22

----------
Assay: clinical
Settings: human, in vivo, 50 mg, Tmax
ASSAY_READOUT: Tmax (h)
Express the result in h but write the number alone.

QUERY: Item under review: `COC(=O)N[C@H](C(=O)N1CCC[C@H]1c1nc2cc(-c3csc4c(-c5ccc(-c6cnc([C@@H]7CCCN7C(=O)[C@H](NC(=O)OC)c7ccccc7)[nH]6)cc5)csc34)ccc2[nH]1)C(C)C` . Reported Tmax?
RESULT: 3.4

----------
Experiment: clinical
Settings: human, in vivo, 50 mg
ASSAY_READOUT: Cmax (ng/mL)
Supply the numeric figure in ng/mL, leaving out any unit text.

QUERY: Given `COC(=O)N[C@H](C(=O)N1CCC[C@H]1c1nc2cc(-c3csc4c(-c5ccc(-c6cnc([C@@H]7CCCN7C(=O)[C@H](NC(=O)OC)c7ccccc7)[nH]6)cc5)csc34)ccc2[nH]1)C(C)C` , state its recorded Cmax.
RESULT: 35.2

----------
Experiment: Phase I/IIa Group A: pharmacokinetics in healthy subjects
Type: in vivo, human
Settings: human, plasma, oral, 50 mg, healthy subjects, 50 mg single dose, fasted, PK Day 1, median (min-max)
ASSAY_READOUT: Tmax (h)
Give just the numeric value; h need not be written.

QUERY: Record request: Tmax value, item COC(=O)N[C@H](C(=O)N1CCC[C@H]1c1nc2cc(-c3csc4c(-c5ccc(-c6cnc([C@@H]7CCCN7C(=O)[C@H](NC(=O)OC)c7ccccc7)[nH]6)cc5)csc34)ccc2[nH]1)C(C)C [the Compound]
RESULT: 4

----------
Assay: clinical
Details: human, in vivo, Tmax
ASSAY_READOUT: Tmax (h)
Number in h, nothing else.

QUERY: # get_value(readout='Tmax', item= `COC(=O)N[C@H](C(=O)N1CCC[C@H]1c1nc2cc(-c3csc4c(-c5ccc(-c6cnc([C@@H]7CCCN7C(=O)[C@H](NC(=O)OC)c7ccccc7)[nH]6)cc5)csc34)ccc2[nH]1)C(C)C` )
RESULT: 3.3

----------
Assay: Phase I/IIa Group A: pharmacokinetics in healthy subjects
Type: in vivo, human
Settings: human, plasma, oral, 100 mg, healthy subjects, 100 mg QD x 7 days, fasted, PK Day 1, median (min-max)
ASSAY_READOUT: Tmax
Your answer should be a number followed by the unit of measure.

QUERY: Requested read-out: Tmax. Entry: `COC(=O)N[C@H](C(=O)N1CCC[C@H]1c1nc2cc(-c3csc4c(-c5ccc(-c6cnc([C@@H]7CCCN7C(=O)[C@H](NC(=O)OC)c7ccccc7)[nH]6)cc5)csc34)ccc2[nH]1)C(C)C`
RESULT: 4 h

----------
Assay: clinical
Details: human, in vivo, Plasma half-life
ASSAY_READOUT: half-life

QUERY: So what's the measured half-life for this one? `COC(=O)N[C@H](C(=O)N1CCC[C@H]1c1nc2cc(-c3csc4c(-c5ccc(-c6cnc([C@@H]7CCCN7C(=O)[C@H](NC(=O)OC)c7ccccc7)[nH]6)cc5)csc34)ccc2[nH]1)C(C)C`
RESULT: ~20 h

----------
Test: clinical
Conditions: human, in vivo, 10 mg
ASSAY_READOUT: half-life
Respond with a number, then the unit of measure.

QUERY: Returns the measured half-life for the input compound. Input: `COC(=O)N[C@H](C(=O)N1CCC[C@H]1c1nc2cc(-c3csc4c(-c5ccc(-c6cnc([C@@H]7CCCN7C(=O)[C@H](NC(=O)OC)c7ccccc7)[nH]6)cc5)csc34)ccc2[nH]1)C(C)C`
RESULT: 24 h

----------
Test: clinical
Conditions: human, in vivo, 50 mg
ASSAY_READOUT: Tmax (h)
All answers are understood in h, so give the number only.

QUERY: Sample `COC(=O)N[C@H](C(=O)N1CCC[C@H]1c1nc2cc(-c3csc4c(-c5ccc(-c6cnc([C@@H]7CCCN7C(=O)[C@H](NC(=O)OC)c7ccccc7)[nH]6)cc5)csc34)ccc2[nH]1)C(C)C` — what was its Tmax?
RESULT: 4

----------
Assay: Phase I/IIa Group A: pharmacokinetics in healthy subjects
Type: in vivo, human
Details: human, plasma, oral, 50 mg, healthy subjects, 50 mg single dose, fed, PK Day 1, mean ± SD; read-out: AUC0-inf
ASSAY_READOUT: AUC(0-inf) (ng·h/mL)
Reply with just the number (in ng·h/mL).

QUERY: Any idea what its AUC(0-inf) is? The compound is `COC(=O)N[C@H](C(=O)N1CCC[C@H]1c1nc2cc(-c3csc4c(-c5ccc(-c6cnc([C@@H]7CCCN7C(=O)[C@H](NC(=O)OC)c7ccccc7)[nH]6)cc5)csc34)ccc2[nH]1)C(C)C`
RESULT: 335

----------
Assay: clinical
Settings: human, in vivo, 5 mg
ASSAY_READOUT: Tmax (h)
The reply should be a number in h, with the unit left off.

QUERY: Value lookup for Tmax; key = COC(=O)N[C@H](C(=O)N1CCC[C@H]1c1nc2cc(-c3csc4c(-c5ccc(-c6cnc([C@@H]7CCCN7C(=O)[C@H](NC(=O)OC)c7ccccc7)[nH]6)cc5)csc34)ccc2[nH]1)C(C)C [the Compound]
RESULT: 4

----------
Assay: Phase I/IIa Group A: pharmacokinetics in healthy subjects
Assay type: in vivo, human
Conditions: human, plasma, oral, 100 mg, healthy subjects, 100 mg QD x 7 days, fasted, PK Day 7, mean ± SD; read-out: AUC0-inf (cell marked with footnote 1)
ASSAY_READOUT: AUC(0-inf) (ng·h/mL)
The figure you give is taken to be in ng·h/mL; do not add the unit.

QUERY: Query (molecule): COC(=O)N[C@H](C(=O)N1CCC[C@H]1c1nc2cc(-c3csc4c(-c5ccc(-c6cnc([C@@H]7CCCN7C(=O)[C@H](NC(=O)OC)c7ccccc7)[nH]6)cc5)csc34)ccc2[nH]1)C(C)C [the Compound] ; field requested: AUC(0-inf)
RESULT: 1480

----------
Assay: Phase I/IIa Group A: pharmacokinetics in healthy subjects
Assay type: in vivo, human
Details: human, plasma, oral, 10 mg, healthy subjects, 10 mg single dose, fasted, PK Day 1, mean ± SD; read-out: AUC0-inf
ASSAY_READOUT: AUC(0-inf) (ng·h/mL)
Express it in ng·h/mL; write the number only.

QUERY: Give the measured AUC(0-inf) of `COC(=O)N[C@H](C(=O)N1CCC[C@H]1c1nc2cc(-c3csc4c(-c5ccc(-c6cnc([C@@H]7CCCN7C(=O)[C@H](NC(=O)OC)c7ccccc7)[nH]6)cc5)csc34)ccc2[nH]1)C(C)C` .
RESULT: 259

----------
Assay: clinical
Settings: human, in vivo, 5 mg
Description: The phase I/IIa study was designed to evaluate safety and tolerability, pharmacokinetics (PK), food effect, and antiviral activity with regard to the Compound. The key safety parameters that were evaluated in the trial include adverse events (AEs), physical examination, vital signs, 12-lead electrocardiogram (ECG), and standard safety laboratory tests. The key antiviral activity parameters that were evaluated in the trial include changes in plasma HCV RNA and emergence of resistance mutations. […]
ASSAY_READOUT: half-life (h)
Record the value in h, omitting the unit from your answer.

QUERY: # half-life lookup, item `COC(=O)N[C@H](C(=O)N1CCC[C@H]1c1nc2cc(-c3csc4c(-c5ccc(-c6cnc([C@@H]7CCCN7C(=O)[C@H](NC(=O)OC)c7ccccc7)[nH]6)cc5)csc34)ccc2[nH]1)C(C)C`
RESULT: 13
